TEST_DETAILS: Restrictive medium S. cerevisiae growth inhibition, OD615, pilot screen of yeast lifespan reduction project, restrictive growth control (AID 706);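 note: modified DeaD lifespan yeast strain shifted to restrictive glucose medium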
MEASUREMENT_SETUP: OD615, 48 h, at 10 µM, hits give high values
Everything with growth inhibition lower than -10% is NOT MET; everything else, including exactly -10%, is MET.

Use these answered entries as a reference point.
* c1ccc2c(c1)nc1n2CCN1CCNC1CCCCC1 | NOT MET
* COc1ccc(-c2nc(C(N)=O)c3[nH]c(=O)n(-c4cccc(C)c4)c3n2)c(OC)c1 | NOT MET
* CC1(C)Cc2c(sc3nc(-c4cccs4)n(N)c(=O)c23)CO1 | MET
* COc1cccc2c(=O)n(CC(=O)NC3CCCC3)ccc12 | MET
* Cc1cccc(C)c1NC(=O)C1(N(Cc2ccco2)C(=O)CC2NC(=O)NC2=O)CCCCC1 (stereo not given) | NOT MET
* CCCCSc1nc(N)c(NC(=O)c2ccco2)c(=O)[nH]1 | NOT MET

Check this molecule for growth inhibition at or above -10%: Brc1ccccc1Cn1c(-c2cncs2)nc2ccccc21
MET

Check this molecule for growth inhibition at or above -10%: CCN(CC)c1ccc(NC(=O)CN2C(=O)CSc3ncccc32)c(C)c1
MET

Check this molecule for growth inhibition at or above -10%: O=C(O)c1ccccc1C(=O)NCC(O)COCC1CC=CCC1 (stereo not given)
NOT MET

Check this molecule for growth inhibition at or above -10%: CC(=O)c1ccc(NC(=O)C2CCCN2S(=O)(=O)c2cccc3cccnc23)cc1 (stereo not given)
MET
